What fraction ligated was measured for each of the following?
Tested on: F1*sub RNA substrate (template-directed ligation)
method summary: fraction ligated after 30 min (ligated reads / total reads); higher = more ligase activity; sequences stand for … in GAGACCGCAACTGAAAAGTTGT…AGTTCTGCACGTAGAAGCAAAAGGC
measurement conditions: 42 °C
A bare number is all that is needed in reply.

Asked: Given TATATTGTCGTAGACACTTTGGATGGGTTGA [3d764] , state its recorded fraction ligated.
Given back: 0.499

Asked: Try this sequence too: TACACTTGTGTAAGACACTTTGGAGGGTTGA [3d628]
Given back: 0.0881

Asked: How about TTCACTTGTGTAAGCACTTTGGATGGGTTGA [3d391] ?
Given back: 0.775

Asked: And what about the sequence TATATTTCGTAAGACACTTTGGATGGGTTGA [3d759] ?
Given back: 0.245

Asked: Thanks! And TATCACTTGTCGTAAGCATTTGGATGGGTTG [3d2127] ?
Given back: 0.833

Asked: Likewise for TATCACTTTCGTAAGCACTTTGGATGGGTTG [3d1538] ?
Given back: 0.764
